measurement description: In vitro inhibitory activity against human neutrophil leukotriene B4 (LTB4) induced Chemotaxis
parameter measured: IC50 (µM)

• CC(Oc1ccc2c(c1)OC[C@H](Cc1ccccn1)[C@@H]2O)c1ccc2ccccc2n1 (stereo not given in full) = 14
• CC(Oc1ccc2c(c1)OC[C@@H](Cc1ccccn1)[C@@H]2O)c1ccc2ccccc2n1 (stereo not given in full) = 0.22

[1] C[C@@H](Oc1ccc2c(c1)OC[C@@H](Cc1cccnc1)[C@@H]2O)c1ccc2ccccc2n1
[2] C[C@H](Oc1ccc2c(c1)OC[C@@H](Cc1cccnc1)[C@@H]2O)c1ccc2ccccc2n1
[3] CC(Oc1ccc2c(c1)OC[C@H](Cc1cccnc1)[C@@H]2O)c1ccc2ccccc2n1 (stereo not given in full)
Sort the compounds on IC50; start with the lowest figure. Record the ranking as a list of labels in the requested order.
1, 2, 3

Reference source: BindingDB's records for doi:10.1016/0960-894X(95)00135-G
